- Test Description: Cell toxicity / % cell viability by flow cytometry (cells in total events v. untreated)
- Format: cell-based, human
- Experimental Parameters: human, THP-1 cells, Cell viability (%) (±St. Dev.; n = 3); THP-1; daily 150 min exposure with serum; shuttle 0.8 μM; GFP-NLS 2.5 μM; exposure 1 day; read-out: Cell viability (%) (±St. Dev.; n = 3)
Where no end group is shown, it is not given here.
Measured Quantity: viability at 24 h, 0.8 µM

For the sequence HHHHHHKWKLFKKIGAVLKVLTTGYARAAARQARA [His-CM18-PTD4] , give its reported viability at 24 h, 0.8 µM.
92.3%

====

- Test Description: Cell toxicity / % cell viability by flow cytometry (cells in total events v. untreated)
- Type: cell-based, Human
- Experimental Parameters: human, HeLa cells, Cell viability (%) (±St. Dev.; n = 3), FIG. 21B; HeLa; GFP-NLS 5 μM; shuttle 1 μM; 1 hour; read-out: Cell viability (%) (±St. Dev.; n = 3), FIG. 21B
Where no end group is shown, it is not given here.
Measured Quantity: viability at 1 h, 1 µM (%)
Report the figure in % without appending any unit label.

For the sequence HHHHHHKWKLFKKIGAVLKVLTTGYGRKKRRQRRR [His-CM18-TAT] , give its reported viability at 1 h, 1 µM.
95

====

- Test Description: Cell toxicity / % cell viability by flow cytometry (cells in total events v. untreated)
- Format: cell-based, Human
- Experimental Parameters: human, HeLa cells
Where no end group is shown, it is not given here.
Measured Quantity: viability at 5 min, 10 µM (%)
Report the figure in % without appending any unit label.

For the sequence LIRLWSHLIHIWFQNRRLKWKKKYARAAARQARA [EB1-PTD4] , give its reported viability at 5 min, 10 µM.
55.8

====

- Test Description: Cell toxicity / % cell viability by flow cytometry (cells in total events v. untreated)
- Assay type: cell-based, Human
- Experimental Parameters: human, HeLa cells, Cell viability (%) (±St. Dev.; n = 3), FIG. 29I; HeLa; Protocol B; shuttle 20 μM; GFP-NLS 5 μM; 1 minute; read-out: Cell viability (%) (±St. Dev.; n = 3), FIG. 29I
Where no end group is shown, it is not given here.
Measured Quantity: viability at 1 min, 20 µM (%)
Report the figure in % without appending any unit label.

Example entries and their recorded answers appear below.
| Input Sequence | viability at 1 min, 20 µM (%) |
| --- | --- |
| HHHKWKLFKKIGAVLKVLTTGYARAAARQARA [3His-CM18-PTD4] | 39.2 |
| KWKLFKKIGAVLKVLTTGGGSGGGSYARAAARQARA [CM18-L2-PTD4] | 64 |
| HHHAHHHKWKLFKKIGAVLKVLTTGYARAAARQARA [HA-CM18-PTD4] | 68.3 |
| MHHHHHHKWKLFKKIGAVLKVLTTGYARAAARQARAC [Met-His-CM18-PTD4-Cys] | 54.9 |

Let us examine a further case.
For the sequence HHHHHHKWKLFKKIGAVLKVLTTGYARAAARQARAHHHHHH [His-CM18-PTD4-His] , give its reported viability at 1 min, 20 µM.
78.6

====

- Test Description: Cell toxicity / % cell viability by flow cytometry (cells in total events v. untreated)
- Type: cell-based, Human
- Experimental Parameters: human, HeLa cells
Where a SMILES comes first, the peptide text is derived from it.
Measured Quantity: viability at 10 s, 50 µM
Give the value; after it, write the unit.

For the compound CC(C)C[C@H](NC(=O)[C@H](CC(C)C)NC(=O)[C@H](CCCCN)NC(=O)[C@H](CCCCN)NC(=O)[C@H](CC(C)C)NC(=O)[C@H](CC(C)C)NC(=O)[C@H](CCCCN)NC(=O)[C@H](CCCCN)NC(=O)[C@H](CC(C)C)NC(=O)[C@H](CC(C)C)NC(=O)[C@@H](N)CS)C(=O)N[C@@H](CCCCN)C(=O)N[C@@H](CCCCN)C(=O)N[C@@H](CS)C(=O)O [C(LLKK)3C, reference compound] (H-CLLKKLLKKLLKKC-OH) , give its reported viability at 10 s, 50 µM.
61.8%
